Catalogue of Ki values
Target: Gonadotropin-releasing hormone receptor (Rattus norvegicus, UniProt P30969)
Experiment: Affinity for rat gonadotrophin releasing hormone (GnRH) receptor using HEK293 cells transfected with rat Gonadotropin-releasing hormone receptor
Assay type: cell-based
Square brackets hold non-standard residues; d marks the D form. Peptide text beside a SMILES is read from it. dPhe(4-Cl) = N[C@H](Cc1ccc(Cl)cc1)C(=O)O; NMeL = CN[C@@H](CC(C)C)C(=O)O; ΔPro = O=C(O)[C@@H]1C=CCN1; βAla = NCCC(=O)O

# annotated cases, reported Ki shown
| compound | Ki |
| --- | --- |
| CC(C)C[C@H]1C(=O)N[C@@H](CCCN=C(N)N)C(=O)N2CCC[C@H]2C(=O)NCCC(=O)N2CC=C[C@H]2C(=O)N[C@H](Cc2ccc(Cl)cc2)C(=O)N[C@H](Cc2c[nH]c3ccccc23)C(=O)N[C@@H](CO)C(=O)N[C@@H](Cc2ccc(O)cc2)C(=O)N[C@H](Cc2c[nH]c3ccccc23)C(=O)N1C (cyclo([NMeL]RP[βAla][ΔPro][dPhe(4-Cl)][dW]SY[dW])) | 14 nM |
| CC(=O)N[C@H](Cc1ccc2ccccc2c1)C(=O)N[C@H](Cc1ccc(Cl)cc1)C(=O)N[C@@H]1CSSC[C@@H](C(=O)N2CCC[C@H]2C(=O)N[C@H](C)C(N)=O)NC(=O)[C@H](CC(C)C)NC(=O)[C@@H](Cc2ccc3ccccc3c2)NC(=O)[C@H](CCCN=C(N)N)NC(=O)[C@H](C)NC1=O | 9.9 nM |

Continue with the compound presented below.
INPUT: Output measured Ki for this item: CC(=O)N[C@H](Cc1ccc2ccccc2c1)C(=O)N[C@H](Cc1ccc(Cl)cc1)C(=O)N[C@@H]1CC(=O)NCC[C@@H](C(=O)N2CCC[C@H]2C(=O)N[C@H](C)C(N)=O)NC(=O)[C@H](CC(C)C)NC(=O)[C@@H](Cc2ccc3ccccc3c2)NC(=O)[C@H](CCCNC(=N)N)NC(=O)[C@H](C)NC1=O
OUTPUT: 13 nM

----------
Catalogue of Ki values
Biological target: Gonadotropin-releasing hormone receptor (Rattus norvegicus, UniProt P30969)
Sequence (P30969 whole entry): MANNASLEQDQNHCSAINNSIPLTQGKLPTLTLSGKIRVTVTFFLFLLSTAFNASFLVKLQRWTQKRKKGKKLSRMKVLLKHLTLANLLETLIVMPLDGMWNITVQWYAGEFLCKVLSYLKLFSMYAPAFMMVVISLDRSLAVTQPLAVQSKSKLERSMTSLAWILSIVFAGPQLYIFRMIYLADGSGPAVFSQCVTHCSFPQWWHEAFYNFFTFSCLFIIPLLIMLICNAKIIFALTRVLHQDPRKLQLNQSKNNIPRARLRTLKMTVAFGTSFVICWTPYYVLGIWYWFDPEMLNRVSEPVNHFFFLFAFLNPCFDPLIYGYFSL
Experiment: Affinity for rat gonadotrophin releasing hormone (GnRH) receptor using HEK293 cells transfected with rat Gonadotropin-releasing hormone receptor
Assay type: cell-based
Settings: hek293
Write the answer as a number in nM, unit excluded.

| smilesNotation | assaySystem | Ki [nM] |
| --- | --- | --- |
| CC(=O)N[C@@H]1CC(=O)NCCC(=O)NCC[C@H]2NC(=O)[C@@H](CC(=O)NC[C@H](C(N)=O)NC(=O)[C@H]3CCCN3C(=O)[C@H](CCCN=C(N)N)NC(=O)[C@@H](CC(C)C)NC(=O)[C@@H](Cc3ccc4ccccc4c3)NC2=O)NC(=O)[C@@H](Cc2c[nH]c3ccccc23)NC(=O)[C@H](Cc2ccc(Cl)cc2)NC1=O | Gonadotropin-releasing hormone receptor (Rattus norvegicus, UniProt P30969) | 0.15 |

Continue with the compound presented below.
INPUT: Output measured Ki for this item: CC(=O)N[C@H](Cc1ccc2ccccc2c1)C(=O)N[C@@H]1CC(=O)NC[C@@H](C(=O)N2CCC[C@H]2C(=O)N[C@H](C)C(N)=O)NC(=O)[C@H](CC(C)C)NC(=O)[C@@H](Cc2ccc3ccccc3c2)NC(=O)[C@H](CCCNC(=N)N)NC(=O)[C@H](C)NC(=O)[C@@H](Cc2cccnc2)NC1=O
OUTPUT: 67
